Source: ChEMBL document CHEMBL1944524

Assay Overview: Plasma protein binding in human
Type: ADME, cell-free
Measurement Context: read-out: PPB (converted)

Smiles Entry | fraction unbound
Cc1n[nH]c(=O)cc1-c1ccc(OC2CCN(C3CCC3)CC2)cc1 | 0.42

###

Assay Overview: Oral bioavailability in rat
Format: ADME, organism-based
Measurement Context: in vivo
# bioavailability per record follows

Compound | bioavailability
CC1=NNC(=O)CC1c1ccc(OC2CCN(C3CCC3)CC2)cc1 (stereo not drawn) | 6%
O=c1cc(-c2ccc(OC3CCN(C4CCC4)CC3)cc2)cn[nH]1 | 21%
Cc1nn(C)c(=O)cc1-c1ccc(OC2CCN(C3CCC3)CC2)cc1 | 19%

###

Assay Overview: Cmax in rat at 5 mg/kg, po
Format: ADME, organism-based
Set-up: dose 5 mg/kg, route oral
Measurement Context: in vivo

Smiles Entry | Cmax (ng/mL)
Cc1cccnc1-n1nc(C)c(-c2ccc(OC3CCN(C4CCC4)CC3)cc2)cc1=O | 505
Cc1nn(-c2ccccn2)c(=O)cc1-c1ccc(OC2CCN(C3CCC3)CC2)cc1 | 287
Cc1cccc(-n2nc(C)c(-c3ccc(OC4CCN(C5CCC5)CC4)cc3)cc2=O)n1 | 332

###

# half-life per record follows
Assay Overview: Half life in rat at 1 mg/kg, iv
Format: ADME, organism-based
Set-up: dose 1 mg/kg, route intravenous
Measurement Context: in vivo

Smiles Entry | Value Unit | half-life
Cc1cccnc1-n1nc(C)c(-c2ccc(OC3CCN(C4CCC4)CC3)cc2)cc1=O | h | 1.1
Cc1nn(-c2ccccn2)c(=O)cc1-c1ccc(OC2CCN(C3CCC3)CC2)cc1 | h | 1.3
Cc1cccc(-n2nc(C)c(-c3ccc(OC4CCN(C5CCC5)CC4)cc3)cc2=O)n1 | h | 1.1
Cc1n[nH]c(=O)cc1-c1ccc(OC2CCN(C3CCC3)CC2)cc1 | h | 1.5

###

Assay System: Histamine H3 receptor (Homo sapiens, UniProt Q9Y5N1)
Sequence (Q9Y5N1 whole entry): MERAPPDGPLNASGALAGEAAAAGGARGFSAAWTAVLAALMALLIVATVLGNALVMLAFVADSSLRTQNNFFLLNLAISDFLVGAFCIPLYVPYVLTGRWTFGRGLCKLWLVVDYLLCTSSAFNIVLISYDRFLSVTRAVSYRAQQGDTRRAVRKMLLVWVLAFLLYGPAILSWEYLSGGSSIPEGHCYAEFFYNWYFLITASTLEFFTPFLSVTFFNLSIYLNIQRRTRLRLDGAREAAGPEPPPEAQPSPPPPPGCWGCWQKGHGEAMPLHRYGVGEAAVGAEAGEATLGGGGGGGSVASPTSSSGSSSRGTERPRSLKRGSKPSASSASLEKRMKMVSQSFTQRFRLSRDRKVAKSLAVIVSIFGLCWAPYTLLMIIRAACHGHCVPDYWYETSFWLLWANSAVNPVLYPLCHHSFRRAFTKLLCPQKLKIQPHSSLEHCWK
Assay Overview: Displacement of [3H]N-alpha-methylhistamine from human histamine H3 receptor expressed in CHO cells
Type: cell-based
pKi: −log10 of the molar value.

Smiles Entry | pKi
O=c1cc(-c2ccc(OC3CCN(C4CCC4)CC3)nc2)cn[nH]1 | 7.85
Cc1n[nH]c(=O)cc1-c1ccc(OC2CCN(C3CCC3)CC2)cc1 | 8.30
Cc1nn(-c2ccccn2)c(=O)cc1-c1ccc(OC2CCN(C3CCC3)CC2)cc1 | 8.52
Cc1nn(C)c(=O)cc1-c1ccc(OC2CCN(C3CCC3)CC2)cc1 | 8.40
Cc1cccc(-n2nc(C)c(-c3ccc(OC4CCN(C5CCC5)CC4)cc3)cc2=O)n1 | 8.40
O=c1cc(-c2ccc(OC3CCN(C4CCC4)CC3)cc2)cn[nH]1 | 8.70
Cc1cccnc1-n1nc(C)c(-c2ccc(OC3CCN(C4CCC4)CC3)cc2)cc1=O | 8.22

###

Assay Overview: Tmax in rat at 5 mg/kg, po
Assay type: ADME, organism-based
Parameters: dose 5 mg/kg, route oral
Measurement Context: in vivo
Endpoint Name: Tmax (h)

Smiles Entry | Assay Value
Cc1cccc(-n2nc(C)c(-c3ccc(OC4CCN(C5CCC5)CC4)cc3)cc2=O)n1 | 2
Cc1nn(-c2ccccn2)c(=O)cc1-c1ccc(OC2CCN(C3CCC3)CC2)cc1 | 3.2
Cc1cccnc1-n1nc(C)c(-c2ccc(OC3CCN(C4CCC4)CC3)cc2)cc1=O | 2.3
